Biological target: ErGPCR-2 (Helicoverpa armigera)
Construct: ErGPCR-2-GFP-His, 7TM region and added signal peptide (GenBank AKA95280.1), isolated from Sf9 cells
Sequence (A0A0U1ZWU3 430-703 limits assumed): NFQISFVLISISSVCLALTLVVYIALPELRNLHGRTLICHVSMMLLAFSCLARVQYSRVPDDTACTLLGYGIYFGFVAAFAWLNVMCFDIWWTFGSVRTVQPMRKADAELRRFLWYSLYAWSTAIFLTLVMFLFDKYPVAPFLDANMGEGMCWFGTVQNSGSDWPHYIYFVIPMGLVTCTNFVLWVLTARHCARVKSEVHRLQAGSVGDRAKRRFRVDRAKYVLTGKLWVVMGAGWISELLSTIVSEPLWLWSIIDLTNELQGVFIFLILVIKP
Assay: saturation binding with isolated receptor, […] enzyme immunoassay
OBSERVABLE: pKd
Formally, pKd is defined as -log10 of the concentration c, with c in mol/L.

Query string: Output pKd of CC(C)(O)CC[C@@H](O)[C@](C)(O)[C@H]1CC[C@@]2(O)C3=CC(=O)[C@@H]4C[C@@H](O)[C@@H](O)C[C@]4(C)[C@H]3CC[C@]12C [20E, 20-hydroxyecdysone]
Result string: 7.63
